- system.tested: human AR (Homo sapiens)
- Construct: expressed in transfected cells; host or cells: CV-1 cells (African green monkey kidney fibroblasts), transient calcium phosphate transfection
- Sequence (P10275 whole entry): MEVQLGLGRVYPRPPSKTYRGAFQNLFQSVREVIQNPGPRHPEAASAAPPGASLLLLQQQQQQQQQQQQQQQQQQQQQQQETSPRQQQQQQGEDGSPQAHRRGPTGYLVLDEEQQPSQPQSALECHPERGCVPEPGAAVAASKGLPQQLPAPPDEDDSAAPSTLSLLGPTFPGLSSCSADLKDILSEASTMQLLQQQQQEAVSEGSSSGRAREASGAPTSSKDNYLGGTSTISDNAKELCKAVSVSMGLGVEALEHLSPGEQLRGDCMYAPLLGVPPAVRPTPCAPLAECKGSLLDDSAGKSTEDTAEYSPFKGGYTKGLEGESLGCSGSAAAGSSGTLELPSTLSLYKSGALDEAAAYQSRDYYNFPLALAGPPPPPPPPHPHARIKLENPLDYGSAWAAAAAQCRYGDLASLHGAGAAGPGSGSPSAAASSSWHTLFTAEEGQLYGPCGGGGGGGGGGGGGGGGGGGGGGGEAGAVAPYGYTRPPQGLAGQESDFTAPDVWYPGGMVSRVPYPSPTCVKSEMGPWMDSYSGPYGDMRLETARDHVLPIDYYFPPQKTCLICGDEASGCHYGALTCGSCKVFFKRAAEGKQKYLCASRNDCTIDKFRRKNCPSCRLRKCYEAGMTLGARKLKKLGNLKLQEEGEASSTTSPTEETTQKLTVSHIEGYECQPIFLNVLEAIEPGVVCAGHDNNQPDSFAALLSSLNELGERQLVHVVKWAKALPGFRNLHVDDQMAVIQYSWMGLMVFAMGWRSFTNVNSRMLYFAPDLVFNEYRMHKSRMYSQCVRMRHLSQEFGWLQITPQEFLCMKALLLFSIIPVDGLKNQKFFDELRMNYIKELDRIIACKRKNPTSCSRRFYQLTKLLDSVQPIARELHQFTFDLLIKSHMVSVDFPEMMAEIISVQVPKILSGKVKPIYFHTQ
- test: cell-based
- Assay type: cell-based
- study.conditions: % of maximal inhibition, fixed DHT at EC50; na = not active
Kindly return Y if reported AR Antagonist CV-1 Cells Efficacy (%) is no lower than 80%; return N if it is lower.

Study these solved cases before continuing.
CC12CCCN1c1cc3[nH]c(=O)c(F)c(C(F)(F)F)c3cc1CC2 (racemic) = Y
Cn1c(=O)c(F)c(C(F)(F)F)c2cc3c(cc21)N1CCCC1(C)CC3 (racemic) = Y
CC1(C)CCc2cc3c(C(F)F)c(F)c(=O)[nH]c3cc2N1 = Y
CC1(C)CCc2cc3c(C(F)(F)F)c(F)c(=O)[nH]c3cc2N1 = N

Ask | // inclusive: AR Antagonist CV-1 Cells Efficacy (%) at least 80%? input: Cc1c2c(cc3c(C(F)(F)F)c(F)c(=O)n(C)c13)C(C)CC(C)(C)N2 (stereo not shown)
Reply | N

Ref: patent EP0918774B9
